Test: qHTS for Inhibitors of the Functional Ribonucleoprotein Complex (vRNP) of Lassa (LASV) Arenavirus: Viability assay - alamar blue signal for LASV Primary Screen (AID 1347083); also: nearly all actives have a fitted effect of over 80% in size
Settings: cell viability, alamar blue fluorescence (LASV minigenome counter-screen); series mostly up to 57.5 µM
Results filed as inconclusive are left out. Activity calls are given as the source filed them. Calls follow the shape of the full dose curve; tested in HEK293 reporter line.
The reply should name one outcome from 1 for active, -1 for inactive

* Oc1cc2c(c(Cl)c1O)CCNCC2c1ccccc1 (stereo unspecified) | -1
* Brc1c(Br)c(Br)c2n[nH]nc2c1Br | -1
* Cc1c(NC(=O)OC[C@@H]2COCCN2)cn2ncnc(Nc3ccc4c(cnn4Cc4cccc(F)c4)c3)c12 | 1
* Nc1nc2c(ncn2[C@@H]2O[C@H](CO)[C@@H](O)[C@@H]2O)c(=O)[nH]1 | -1
* O=c1[nH]c2cc(Cl)ccc2c(O)c1-c1ccc(Oc2ccccc2)cc1 | -1

Consider now this further molecule.
Request: Please share the test call associated with CN(C)CCC(c1ccc(Cl)cc1)c1ccccn1 (stereo unspecified) .
Result: -1

Source listed as PubChem BioAssay (NCATS).
